// melting point lookup, one value per entry

O=S(=O)(Nc1nccnc1OCc1ccccn1)c1cccc(Cl)c1Cl [Example 28]: 167 to 168 °C
COC(=O)c1cnc(NS(=O)(=O)c2cccc(Cl)c2Cl)c(OC)n1 [Example 113]: 120 to 121 °C

CNc1nc(OC)c(NS(=O)(=O)c2cccc(Cl)c2Cl)nc1Cl [Example 79] yielded melting point of 185 to 186 °C

// sample COc1nc(Cl)c(Cl)nc1NS(=O)(=O)c1ccccc1Cl [Example 60] , its melting point was 217 to 218 °C

Measured melting point, COc1nc(Cl)c(Cl)nc1NS(=O)(=O)c1ccc(Cl)cc1Cl [Example 63] : 171 to 172 °C

Record COc1cccc(S(=O)(=O)Nc2nccnc2OC)c1Cl [Example 132] . Reported melting point: 151 to 152 °C

Query COc1nc(NCCNC(C)=O)c(Cl)nc1NS(=O)(=O)c1cccc(Cl)c1Cl [Example 76] yields melting point of 150 to 152 °C

Entry under test: C=CCOc1cnc(NS(=O)(=O)c2cccc(Cl)c2Cl)c(OC)n1 [Example 139] . Its melting point was 120 to 121 °C

Looking up O=S(=O)(Nc1ncc(Br)nc1OCc1cccnc1)c1cccc(Cl)c1Cl [Example 34] , I found its melting point recorded as 204 to 206 °C
